This collection of values is drawn from patent US20240010721A1.

- experimental system: ROR1 (antigen of the KD determination and of the Octet dissociation measurement) (UniProt Q01973 30-403, limits assumed)
- Sequence (Q01973 30-403 limits assumed): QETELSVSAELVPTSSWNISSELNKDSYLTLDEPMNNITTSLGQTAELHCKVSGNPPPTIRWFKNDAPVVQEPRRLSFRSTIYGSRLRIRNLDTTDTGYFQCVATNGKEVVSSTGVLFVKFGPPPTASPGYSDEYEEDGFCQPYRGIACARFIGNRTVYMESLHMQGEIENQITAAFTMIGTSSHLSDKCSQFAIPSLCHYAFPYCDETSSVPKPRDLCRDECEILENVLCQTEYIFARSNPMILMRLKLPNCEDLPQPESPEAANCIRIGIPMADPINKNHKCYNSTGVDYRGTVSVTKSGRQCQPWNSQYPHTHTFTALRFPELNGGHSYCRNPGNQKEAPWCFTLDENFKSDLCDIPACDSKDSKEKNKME
- test method notes: Octet, antigen form not stated
assay metric: koff (s⁻¹)
Give a bare numeral; the unit s⁻¹ is implied.

Worked set:
PR002570 (antibody, human IgG1, kappa, V domains shown, PR001356 variant: VH D54E; hIgG1; also called anti-ROR1 1015M2-E6(H: D54E) hIgG1) VH: QVQLVESGGGVVQPGRSLRLSCAASGFTFSSYGMHWVRQAPGKGLEWVAVAWYEGVSEDYADSVKGRFTISRDNAKNTLYLQMNSLRAEDTAVYYCAREQARSFDLWGRGTLVTVSS VL: DIVMTQSPSTLSASVGDRVTITCRASQSINNWLAWYQQKPGKAPKLLIYKASSLESGVPSRFSGSGSGTEFTLTISSLQPDDFATYYCQQYKSYSPMYTFGQGTKVEIKR | 0.00108
PR002566 (antibody, human IgG1, kappa, V domains shown, PR001354 variant: VH D54E, VL S93A; hIgG1; also called anti-ROR1 1015M2-C9(H: D54E; L: S93A) hIgG1) VH: QVQLVQSGGGVVQPGRSLRLSCAASGFTFSSYGMHWVRQAPGKGLEWVAIMWYEGSDKDYADSVKGRFTISRDTSKNTLYLQMNSLRAEDTAVYYCAREQARSFDLWGRGTLVTVSS VL: DIVMTQSPSSLSASVGDRVTITCRASQTINNWLAWYQQKPGKAPKLLIYKASSLESGVPSRFSGSGSGTEFTLTISSLQPDDFATYYCQQYNAYSPMYTFGQGTKVEIKR | 0.000135
PR002563 (antibody, human IgG1, kappa, V domains shown, PR001354 variant: VL S93A; hIgG1; also called anti-ROR1 1015M2-C9(L: S93A) hIgG1) VH: QVQLVQSGGGVVQPGRSLRLSCAASGFTFSSYGMHWVRQAPGKGLEWVAIMWYDGSDKDYADSVKGRFTISRDTSKNTLYLQMNSLRAEDTAVYYCAREQARSFDLWGRGTLVTVSS VL: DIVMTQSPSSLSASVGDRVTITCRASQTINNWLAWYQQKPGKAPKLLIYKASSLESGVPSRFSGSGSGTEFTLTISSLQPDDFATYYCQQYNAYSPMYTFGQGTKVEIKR | 0.000122

Okay, now this binder:
Request: Tell me the measured koff of PR002586 (antibody, human IgG1, kappa, V domains shown, PR001369 variant: VH G55A, VL N92Q; hIgG1; also called anti-ROR1 1015M3-H10(H: G55A; L: N92Q) hIgG1) VH: QVQLVESGGGVVQPGRSLRLSCAASGFTFSNYGIHWVRQAPGKGLEWVAIMWYDASNTDYADSVKGRFTISRDTSKNTLFLQMNSLRAEDTAVYYCAREQARSFDLWGRGTLVTVSS VL: DIVMTQSPSTLSASVGDRVTITCRASQTINNWLAWYQQKPGKAPKLLIYKASSLESGVPSRFSGSGSGTEFTLTISSLQPDDFATYYCQQYQSYSPMYTFGQGTKVEIKR , please.
Response: 0.000266
